Tested on: T-47D breast
Test: NCI tumour cell line growth inhibition, 48 h
// reported TGI for each item listed

# input Suppose we examine the molecule CCCCN(CCCC)P(=O)(Oc1ccccc1)Oc1ccccc1 ; what TGI value has been reported?
# output 33.1 µM

# input Repeat with O=C1N[C@H]2C(=O)c3c(Br)sc(Br)c3[C@H]2O1
# output 55 µM

====

Test system: LOX IMVI melanoma
Experiment: NCI tumour cell line growth inhibition, 48 h; in the data active means GI50 below about 0.43 µM; inactive means the rest
Form entry, call: pick from class 1 = active, class 0 = inactive

Example results:
COMPOUND | GROUP
CC[C@@]1(O)CC(OC2CC(N3CCOCC3)C(O)C(C)O2)c2c(O)c3c(c(O)c2[C@H]1O)C(=O)c1cccc(O)c1C3=O (stereo not given in full) | class 1
O=C(Nc1ccc(I)cc1F)c1cc(Br)ccc1O | class 0
CCCCCSc1ccc2nc(NC(=O)OCC)sc2c1 | class 0
c1cc(OCCN2CCCC2)ccc1CNc1ccc2nc(CCC3CCCCC3)[nH]c2c1 | class 0

In the following, a different compound is considered.
# input Please state the recorded outcome for this compound: O=C(Nc1ccc(Cl)c(C(F)(F)F)c1)Nc1ccc(-c2cccnc2)cc1N1CCC(CO)CC1
# output class 0

====

System: UACC-257 melanoma
Assay: NCI tumour cell line growth inhibition, 48 h
MEASURED_PARAMETER: TGI

MOLECULE | ASSAYED_SYSTEM | TGI
C/C(=N\O)c1ccc(OCc2cc(C(F)(F)F)cc(C(F)(F)F)c2)cc1 | UACC-257 melanoma | > 100 µM
COc1cc(CSc2nc3ccc(Cl)cc3c(=O)n2Cc2ccccc2)cc(OC)c1OC | UACC-257 melanoma | > 100 µM
COc1cc(OC)c(C(=O)/C=C/c2ccc(C#N)cc2)c(OC)c1 | UACC-257 melanoma | 42.2 µM
CC(=O)OCC12CC(CC1OC(C)=O)c1ccccc12 (stereo not drawn) | UACC-257 melanoma | > 100 µM
CCc1cc2c(c(OCC(F)(F)F)c(C(=O)NC3CCN(C(=O)CO)CC3)n2C)c(=O)n1CC(=O)c1ccccc1 | UACC-257 melanoma | > 100 µM

# input Suppose we examine the molecule O=C(Nc1ccc(I)cc1F)c1cc(Br)ccc1O ; what TGI value has been reported?
# output 4.29 µM

# input Repeat with COC(=O)c1c(O)ccc2c1c1c(n2CCc2ccc(OC)c(OC)c2)C(=O)c2ccccc2C1=O
# output 35.8 µM

# input Repeat with COc1cc2c(/C=C3\C(=O)N(C)c4ccccc43)c[nH]c2cc1C
# output > 100 µM

====

Tested on: UO-31 renal
Assay: NCI tumour cell line growth inhibition, 48 h
// reported TGI for each item listed
Kindly answer with a numeric value in µM, unit omitted.

Worked examples follow.
COMPOUND | MEASURED_PARAMETER | RECORDED_NUMBER
CCOC(=O)c1ccc(N2NC(=O)/C(=C/c3ccc([N+](=O)[O-])o3)C2=O)cc1 | TGI | 13.8
O=C1C(Cl)C(c2ccccc2Cl)N1n1cnc2ccccc2c1=O (stereo unspecified) | TGI | 73.2
COc1cccc(/C=C2\CCC(CN(C)C)C2=O)c1 (stereo unspecified) | TGI | 20.1

# input Suppose we examine the compound Cc1[nH]c2ccccc2c1CO ; what TGI value has been reported?
# output 31.7

# input Repeat with COc1ccc(Sc2[nH]c(C=O)c3ccccc23)cc1
# output 22.2

# input Repeat with COC(=O)c1c2c(c(C)[n+]([O-])c1C)C(=O)C(NCc1ccccc1)=CC2=O
# output 10.1

====

// reported TGI for each item listed
Test system: NCI-H522 lung
Assay: NCI tumour cell line growth inhibition, 48 h

COMPOUND | TGI
Nc1nc(Cl)c(N)c(NCC2(CO)CCC(OCc3ccccc3)C2)n1 (stereo unspecified) | > 100 µM
COc1ccc2cc3c4cc(OC)c(OC)cc4ccn3c2c1 | > 100 µM
COc1ccc(-c2cnc(-c3ccc(OC)cc3)n2-c2cc(OC)c(OC)c(OC)c2)cc1 | > 100 µM
N#CC(NNC(=O)Cc1ccccc1)c1ccc([N+](=O)[O-])cc1 (stereo unspecified) | > 100 µM
O=c1[nH]c(-c2ccc(Cl)c(Cl)c2)cn1-c1ccc(Cl)cc1 | > 100 µM

Lab note: next compound to report on.
# input Suppose we examine the compound N#Cc1c(N)nc2c(c1-c1ccc(Cl)cc1)COc1ccc(F)cc1-2 ; what TGI value has been reported?
# output 59.5 µM

====

// reported TGI for each item listed
Test system: HCT-116 colon
Test: NCI tumour cell line growth inhibition, 48 h

Worked examples follow.
COMPOUND | TGI
O=C1NC(=O)C(CCC(=O)c2cccc3ccccc23)C(=O)N1 | > 100 µM
CC(=O)Nc1ccc(S(=O)(=O)c2nnc(NC(C)=O)s2)cc1 | > 100 µM
CC(=O)NC(CCCCNCc1ccccc1)C(=O)NCc1ccccc1 (stereo unspecified) | > 100 µM
C=C(CN(C)C)C(=O)c1ccccc1OC | 30.9 µM
COc1cc(/C=C2\CCC(C)C3=C2N=c2s/c(=C/c4ccc(Cl)cc4)c(=O)n2C3c2cc(OC)c(OC)c(OC)c2)cc(OC)c1OC (stereo unspecified) | > 100 µM
CC(C(=O)NCNC(=O)c1ccccc1)C(=O)Nc1ccccc1 (stereo unspecified) | > 100 µM
Clc1cc(Br)ccc1-c1ccc(CNCC2CCNCC2)o1 | 3.97 µM
COc1ccc(-c2cnc(-c3ccc(OC)cc3)n2-c2cc(OC)c(OC)c(OC)c2)cc1 | > 100 µM
Oc1ccc(Br)cc1C=Nc1c(NC2CCCCC2)oc2ccc(Br)cc12 | 28.7 µM
N#CC(Sc1ccccc1)C(N)=O (stereo unspecified) | > 100 µM

Lab note: next compound to report on.
# input Suppose we examine the compound CCOc1ccccc1/C=N\N=C(N/N=C/c1ccccc1OCC)N/N=C/c1ccccc1OCC ; what TGI value has been reported?
# output > 100 µM

====

Tested on: KM12 colon
Test: NCI tumour cell line growth inhibition, 48 h
// reported TGI for each item listed

Worked examples follow.
LINE_NOTATION | ASSAYED_SYSTEM | TGI
O=CN/C=C/c1ccccc1 | KM12 colon | > 100 µM
O=C1c2cc3c(cc2CC12Cc1ccccc1C2)CCC3 | KM12 colon | 56.9 µM

Lab note: next molecule to report on.
# input Suppose we examine the molecule NCCCN(CCCCN(CCCN)Cc1ccccc1)Cc1ccccc1 ; what TGI value has been reported?
# output > 100 µM

====

Test system: SNB-19 CNS
Assay: NCI tumour cell line growth inhibition, 48 h
MEASURED_PARAMETER: TGI

COMPOUND | ASSAYED_SYSTEM | TGI
O=C1NC(=O)C(CCC(=O)c2cccc3ccccc23)C(=O)N1 | SNB-19 CNS | > 100 µM
Cc1nc2ccc(Cl)cc2c2c1CCN2c1ccc(F)cc1 | SNB-19 CNS | > 100 µM
O=CCCn1[nH]c(=O)ccc1=O | SNB-19 CNS | > 100 µM
O=C(/C=C/c1ccc([N+](=O)[O-])cc1)N1CCN(CCOC(c2ccc(F)cc2)c2ccc(F)cc2)CC1 | SNB-19 CNS | > 100 µM
N#CC1(CCCI)CCCC1 | SNB-19 CNS | 31.6 µM

Lab note: next compound to report on.
# input Suppose we examine the compound O=S(=O)(CC(Cl)c1ccccc1)c1nc2ccccc2s1 (stereo unspecified) ; what TGI value has been reported?
# output 32.3 µM

====

Test system: CCRF-CEM leukemia
Experiment: NCI tumour cell line growth inhibition, 48 h
MEASURED_PARAMETER: TGI

Worked examples follow.
COMPOUND | TGI
O=C1CCCc2ccc([N+](=O)[O-])c(O)c21 | > 100 µM
CCCc1cn2c(/C=N/N=C(N)N)c(-c3cc([N+](=O)[O-])c(Cl)cc3Cl)nc2s1 | 0.86 µM
COc1ccc(C)c2sc(N(Cc3cccnc3)C(=O)c3ccc(C#N)cc3)nc12 | > 100 µM
Brc1ccc(-c2[nH]c3ccccc3c2/C=N\Nc2ccc(-c3nc4ccccc4[nH]3)cc2)cc1 | > 68.6 µM
CC(=O)OC(C(=O)O)C(OC(C)=O)C(OC(C)=O)C(OC(C)=O)C(=O)O (centres undefined) | > 100 µM
CC(C)(C)c1cc(C[P+](c2ccccc2)(c2ccccc2)c2ccccc2)cc(C(C)(C)C)c1O | 5.33 µM
COc1cc2c3c(n(CCCN=[N+]=[N-])c(=O)c2cc1OC)-c1ccccc1C3=O | > 100 µM
NC1CCN(c2nc3ccccc3c3c2CCCC3)CC1 | 15.2 µM

# input Suppose we examine the compound Cn1c(=O)c2c(nc3n2CCCC(=O)N3CCCCl)n(C)c1=O ; what TGI value has been reported?
# output > 100 µM

# input Repeat with Cc1nc2ccc(Cl)cc2c2c1CCN2c1ccc(F)cc1
# output > 100 µM

# input Repeat with N#CC(O)CCOCc1ccccc1 (centres undefined)
# output > 100 µM

# input Repeat with Cc1ccc(-c2cc(C(=O)Nc3ccc(S(=O)(=O)N4CCCCC4)cc3)[nH]n2)c(O)c1
# output > 100 µM

# input Repeat with CCCCCCOC(=O)CC1=C(C)/C(=C/c2[nH]c(-c3ccc[nH]3)cc2OC)N=C1C
# output 1.56 µM

# input Repeat with CCOC(=O)C1CC(=O)C=C2CCCCC21 (centres undefined)
# output > 100 µM

# input Repeat with Cc1cccc2c(=O)c3c(sc12)c(NCCCNCCO)nc1ccccc13
# output 3.31 µM
